system name: fatty acyl CoA: cholesterol acyl transferase (ACAT) (Rattus norvegicus)
Construct: The supernatant, containing the microsomal fraction, served as the source of the cholesterol-esterifying enzyme; from tissue; host or cells: rat adrenals, supernatant of 1,000 x g centrifugation containing the microsomal fraction
Sequence (O70536 1-545): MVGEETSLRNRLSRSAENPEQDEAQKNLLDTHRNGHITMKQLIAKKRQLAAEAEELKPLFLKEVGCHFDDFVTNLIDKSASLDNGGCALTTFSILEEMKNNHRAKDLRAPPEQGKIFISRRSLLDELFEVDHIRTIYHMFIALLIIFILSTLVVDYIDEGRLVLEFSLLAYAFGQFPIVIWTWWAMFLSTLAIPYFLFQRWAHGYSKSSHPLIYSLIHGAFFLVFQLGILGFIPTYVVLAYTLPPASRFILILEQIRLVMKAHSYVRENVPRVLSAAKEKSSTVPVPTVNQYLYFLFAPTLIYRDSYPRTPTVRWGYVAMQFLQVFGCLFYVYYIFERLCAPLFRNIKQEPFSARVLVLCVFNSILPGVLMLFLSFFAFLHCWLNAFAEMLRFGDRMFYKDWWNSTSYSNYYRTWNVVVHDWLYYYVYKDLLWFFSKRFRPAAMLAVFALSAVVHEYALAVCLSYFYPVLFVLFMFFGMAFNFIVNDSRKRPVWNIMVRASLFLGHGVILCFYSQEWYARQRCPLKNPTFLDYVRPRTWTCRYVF
experiment notes: Inhibition of fatty acyl CoA:cholesterol acyl transferase (ACAT), rat adrenal enzyme
Format: biochemical
condition description: rat adrenal ACAT; final concentration 5.2 μg/ml; read-out: % Inhibition
test readout: inhibition at 5.2 µg/mL (%)

[[record]]
compound_structure_string = "O=C(Nc1ccc(Cl)cc1Cl)N(Cc1ccc(Cl)cc1)Cc1cccc2ccccc12"
system_name = "fatty acyl CoA: cholesterol acyl transferase (ACAT) (Rattus norvegicus)"
value_units = "%"
assay_result = 92

[[record]]
compound_structure_string = "CCCCCCCN(Cc1ccc(CCCC)cc1)C(=O)Nc1ccc(C)cc1C"
system_name = "fatty acyl CoA: cholesterol acyl transferase (ACAT) (Rattus norvegicus)"
value_units = "%"
assay_result = 94.8

[[record]]
compound_structure_string = "CCCCN(Cc1ccccc1)C(=O)Nc1cc(C)cc(C)c1"
system_name = "fatty acyl CoA: cholesterol acyl transferase (ACAT) (Rattus norvegicus)"
value_units = "%"
assay_result = 94.2


P. CCCCN(Cc1ccccc1)C(=O)Nc1cc(Cl)c(NC(=O)C(F)(F)F)c(Cl)c1
Q. CCCCN(Cc1ccccc1)C(=O)Nc1cc(Cl)c(N)c(Cl)c1
Higher inhibition at 5.2 µg/mL between P and Q ? Answer by stating the label of the chosen item.
P
(P: 87.8%, Q: 61.1%)

* * *

System: cholesterol absorption
experiment notes: Inhibition of cholesterol absorption in rats fed 1% cholesterol:0.5% cholic acid diet
Assay type: in vivo, male Sprague-Dawley rats
condition description: po, 336 h; rat; dose .03% of the diet, 2 weeks; read-out: SS (serum sterol), percentage of control values
test readout: response vs control in vivo at 0.03 % (%)
# unit: % | format: bare number

[[record]]
compound_structure_string = "CCCCCCCN(Cc1ccco1)C(=O)Nc1c(Cl)cc(Cl)cc1Cl"
assay_result = 37

[[record]]
compound_structure_string = "Cc1cc(Cl)cc(C)c1NC(=O)N(CCC(C)(C)C)Cc1ccc(CC(C)(C)C)cc1"
assay_result = 31

[[record]]
compound_structure_string = "Cc1cc(Cl)ccc1NC(=O)N(CCC(C)(C)C)Cc1ccc(Cl)cc1"
assay_result = 50


Suppose we examine the compound `CCCCc1ccc(CN(CCCCCCCl)C(=O)Nc2c(Cl)cc(Cl)cc2Cl)cc1` ; what response vs control in vivo at 0.03 % value has been reported?
34

Same question, `CCCCCCCN(Cc1ccc(OCCCC)cc1)C(=O)Nc1cc(C)c(C)cc1C` this time
32

Same question, `Cc1ccc(NC(=O)N(Cc2ccc(C)c(C)c2)Cc2ccccc2Cl)c(C)c1` this time
44

Same question, `CCCCCCCN(Cc1ccc(CCCC)cc1)C(=O)Nc1ccc(C)cc1C` this time
46

Same question, `CCCCCCCN(Cc1ccc(CCCC)cc1)C(=O)Nc1c(C)cc(Cl)cc1C` this time
31

* * *

system name: fatty acyl CoA: cholesterol acyl transferase (ACAT) (Rattus norvegicus, UniProt O70536)
Construct: The supernatant, containing the microsomal fraction, served as the source of the cholesterol-esterifying enzyme; from tissue; host or cells: rat adrenals, supernatant of 1,000 x g centrifugation containing the microsomal fraction
experiment notes: Inhibition of fatty acyl CoA:cholesterol acyl transferase (ACAT), rat adrenal enzyme
Assay type: biochemical
condition description: rat adrenal ACAT; final concentration 5.2 μg/ml; read-out: % Inhibition
test readout: inhibition at 5.2 µg/mL (%)

See these solved cases before continuing.
[[record]]
compound = "O=C(Nc1cc(Cl)c(Cl)cc1Cl)N(Cc1ccc(Cl)cc1)Cc1cccc2ccccc12"
assay_result = 86

[[record]]
compound = "CCCCCCCN(Cc1ccc(CCCC)cc1)C(=O)Nc1ccc(C(=O)O)cc1"
assay_result = 61.8

[[record]]
compound = "CCCCCCCN(Cc1ccc(OCCCC)cc1)C(=O)Nc1ccc(Cl)cc1C"
assay_result = 91.7


a. CCCCN(Cc1ccccc1)C(=O)Nc1c(Cl)cc(Cl)cc1Cl
b. Cc1ccc(NC(=O)N(Cc2ccc(-c3ccccc3)cc2)Cc2ccc(Cl)c(Cl)c2)c(C)c1
Higher inhibition at 5.2 µg/mL between a and b ? Answer by stating the label of the chosen item.
a
(a: 87.8%, b: 36.3%)

* * *

system name: fatty acyl CoA: cholesterol acyl transferase (ACAT) (Rattus norvegicus, UniProt O70536)
Construct: The supernatant, containing the microsomal fraction, served as the source of the cholesterol-esterifying enzyme; from tissue; host or cells: rat adrenals, supernatant of 1,000 x g centrifugation containing the microsomal fraction
experiment notes: Inhibition of fatty acyl CoA:cholesterol acyl transferase (ACAT), rat adrenal enzyme
Assay type: biochemical
condition description: rat adrenal ACAT; final concentration 5.2 μg/ml; read-out: % Inhibition
test readout: inhibition at 5.2 µg/mL (%)

[[record]]
molecule = "CCCCc1ccc(CN(Cc2ccccc2)C(=O)Nc2cc(C)c(C)cc2C)cc1"
system_name = "fatty acyl CoA: cholesterol acyl transferase (ACAT) (Rattus norvegicus, UniProt O70536)"
value_units = "%"
assay_result = 90.5

[[record]]
molecule = "CCCCN(Cc1ccccc1)C(=O)Nc1ccc(Cl)cc1C"
system_name = "fatty acyl CoA: cholesterol acyl transferase (ACAT) (Rattus norvegicus, UniProt O70536)"
value_units = "%"
assay_result = 89

[[record]]
molecule = "Cc1ccc(NC(=O)N(CCC(c2ccccc2)c2ccccc2)c2ccc3c(c2)OCO3)c(C)c1"
system_name = "fatty acyl CoA: cholesterol acyl transferase (ACAT) (Rattus norvegicus, UniProt O70536)"
value_units = "%"
assay_result = 87.8

[[record]]
molecule = "CCCCCOc1ccc(CN(Cc2ccc(CCCCC)cc2)C(=O)Nc2ccc(Cl)cc2Cl)cc1"
system_name = "fatty acyl CoA: cholesterol acyl transferase (ACAT) (Rattus norvegicus, UniProt O70536)"
value_units = "%"
assay_result = 85

[[record]]
molecule = "CCCCCOc1ccc(CN(Cc2ccc(CCCCC)cc2)C(=O)Nc2cccc(C(F)(F)F)c2)cc1"
system_name = "fatty acyl CoA: cholesterol acyl transferase (ACAT) (Rattus norvegicus, UniProt O70536)"
value_units = "%"
assay_result = 85


P. CCCCN(Cc1ccccc1)C(=O)Nc1ccc(Cl)c(Cl)c1
Q. Cc1ccc(NC(=O)N(CCc2cccc(C(F)(F)F)c2)Cc2ccccc2Cl)c(C)c1
Higher inhibition at 5.2 µg/mL between P and Q ? Answer by stating the label of the chosen item.
P

* * *

Recorded measurements of response vs control in vivo at 0.03 %, one per entry
System: cholesterol absorption
experiment notes: Inhibition of cholesterol absorption in rats fed 1% cholesterol:0.5% cholic acid diet
Format: in vivo, male Sprague-Dawley rats
condition description: po, 336 h; rat; dose .03% of the diet, 2 weeks; read-out: SS (serum sterol), percentage of control values
# unit: % | format: bare number

See these solved cases before continuing.
[[record]]
compound_structure_string = "Cc1cc(Cl)ccc1NC(=O)N(CCC(C)(C)C)Cc1ccccc1"
system_name = "cholesterol absorption"
value_units = "%"
assay_result = 64

[[record]]
compound_structure_string = "CCCCCOc1ccc(CN(Cc2ccc(CCCCC)cc2)C(=O)Nc2cc(Cl)c(Cl)cc2Cl)cc1"
system_name = "cholesterol absorption"
value_units = "%"
assay_result = 85

[[record]]
compound_structure_string = "CCCCCCCN(Cc1ccco1)C(=O)Nc1cc(C)c(C)cc1C"
system_name = "cholesterol absorption"
value_units = "%"
assay_result = 44

[[record]]
compound_structure_string = "CCCCOc1ccc(CN(CCC(C)(C)C)C(=O)Nc2ccc(F)cc2F)cc1"
system_name = "cholesterol absorption"
value_units = "%"
assay_result = 42


Suppose we examine the molecule `CCCCc1ccc(CN(CCCCC[Si](C)(C)C)C(=O)Nc2ccc(Cl)cc2C)cc1` ; what response vs control in vivo at 0.03 % value has been reported?
50
